Assay: LogD (octanol-water distribution coefficient)
Type: physicochemical
Conditions: pH 7.4
reported property: logD
Lab note: jot down the number only; don't add units.

Per the records, this compound ( Cc1nsc(N2C[C@H]3CC[C@@H](C2)[C@@H]3Nc2nc3c(-c4ccc(F)c(F)c4F)cccn3n2)n1 ) has logD equal to 4

---

Assay: Human microsomal clearance
Format: in vitro ADME
Conditions: human microsomes, read-out: CLmicr human microsomal clearance
reported property: microsomal CLint

Sure, the documented microsomal CLint for Cc1nsc(N2C[C@H]3CC[C@@H](C2)[C@@H]3Nc2nc3c(-c4ccc(F)c(F)c4F)cccn3n2)n1 [RO7019009] is < 10 µL/min/mg
